Experiment: NCI Yeast Anticancer Drug Screen. Data for the sgs1 mgt1 strain (AID 161);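 note: 0% = growth of cultures given vehicle only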
Conditions: S. cerevisiae sgs1 mgt1 strain, at 50.0 µM, active compounds read high
Protocol: Growth inhibition of yeast strains with defined genetic alterations is measured as a screen for potential anti-cancer activity. Selected strains with alterations in DNA damage repair or cell cycle control were exposed to compounds and growth inhibition was measured relative to vehicle treated controls. The strain used in this assay is sgs1 mgt1
This is part of a sample that, as a whole, favours compounds with a hit. Of some 79,000 tested, about 15% had one in any assay.
EXPERIMENTAL READOUT: growth inhibition (%)
Report only the number, with the unit % understood.

Problem: Give a short answer stating reported growth inhibition for CCC(C)C(CO)N=Cc1ccccc1O.O.[Cu] (stereo not drawn) .
Result: 74

Problem: Given O=C1COc2ccccc2OCCOCCOc2ccccc2OC1 , respond with its growth inhibition.
Result: -2.7

Problem: Report growth inhibition, nothing else, for this compound: Nc1cccc(C(O)c2ccccc2)c1 (stereo not drawn)
Result: 0.1

* * *

Field: growth inhibition. Provide a value for each of the compounds that follow.
Assay: NCI Yeast Anticancer Drug Screen. Data for the bub3 strain (AID 167)
Conditions: S. cerevisiae bub3 mutant strain, at 50.0 µM, active compounds read high
This is part of a sample that, as a whole, favours compounds with a hit. Of some 79,000 tested, about 15% had one in any assay.
Expressed in %, but write only the number.

Problem: Indicate its recorded growth inhibition; the compound in question is OCCOc1ccc(OCCO)cc1
Result: 9.9

Problem: Please give the documented growth inhibition of CCC(=O)Nc1cccc(OC(=O)NC2CCCCC2)c1
Result: 20.2

Problem: For Cc1ccc(/C=C/C(=N/NC(=O)c2ccccc2)C(C)CN(C)C)cc1 (stereo not given) , write its growth inhibition.
Result: 0.25

Problem: Write down growth inhibition measured for item O=C(Nc1ccc(Cl)c(Cl)c1)Nc1cccc2nsnc12
Result: -1.5

Problem: Please supply the value of reported growth inhibition for the item Cc1ccc2nc(NC(=O)OCc3ccccc3)sc2c1
Result: 8.6

Problem: Fill in growth inhibition for record COC(=O)CC1(CC(=O)O)SCCS1
Result: 13.5

Problem: Look up and report measured growth inhibition for this entry: O=C1/C(=C/c2ccc(Br)cc2)CCC/C1=C\c1ccc(Br)cc1
Result: -11.9

Problem: Supply recorded growth inhibition for NC(=O)c1ccccc1NC(=O)Nc1ccc(Cl)cc1 here.
Result: 21.5

Problem: Provide measured growth inhibition value, entry: NCc1ccccc1F
Result: -6.75

Problem: # return recorded growth inhibition for input Clc1ccccc1CSc1cc(SCc2ccccc2Cl)nc(SCc2ccccc2Cl)n1
Result: -7.3

Problem: Entry O=C(O)c1ccccc1Nc1nc2ccccc2o1 needs its growth inhibition filled in; supply it.
Result: 15.2

Problem: Name the recorded growth inhibition of the compound listed here: O=C(NC(=O)c1c(F)cccc1F)Nc1nc2c(Cl)cccc2s1
Result: -6.55

Problem: Given the compound CCCCCCC1CCC(O)CC1 (stereo not given) , write its reported growth inhibition.
Result: 12.3

Problem: Specify measured growth inhibition for O=C(ONC1CCC(CC2CCCCC2)CC1)c1ccccc1 (stereo not given) .
Result: 98.2

Problem: Provide measured growth inhibition value, entry: COC(=O)C1(C)CCCC2(C)C3=CC(O)C4(C(C)C)OC4C3(O)CCC12 (stereo not given)
Result: -21.9

Problem: Give growth inhibition for the following compound: CSc1n[nH]c(-c2cccs2)n1
Result: -6.35

Problem: Query growth inhibition for CCCCCCCC(NC(C)=O)(C(=O)OCC)C(=O)OCC
Result: 6.75

Problem: Give recorded growth inhibition. Clc1ccc(C2=CSC3=NCCN23)cc1
Result: 16.4

Problem: Tell me its growth inhibition given Cc1ccccc1NCS(=O)(=O)O as the entry.
Result: -14.8

Problem: Using the record for O=C(c1ccccc1)c1ccc(C(=O)c2ccccc2)cc1 , state its measured growth inhibition.
Result: -9.35

Problem: Identify measured growth inhibition corresponding to CC(=O)Oc1cccc(C)c1
Result: -13.2

Problem: Entry CC1CCOC(c2ccccc2Cl)O1 (stereo not given) needs its growth inhibition filled in; supply it.
Result: -9.3

Problem: Output growth inhibition of O=C(O)[C@@H]1OCCOCCO[C@@H](C(=O)O)[C@H](C(=O)O)OCCOCCO[C@H]1C(=O)O
Result: 2.25

Problem: Consider the compound C[N+](C)(C)CCCc1ccc2oc3ccccc3c2c1 . State its measured growth inhibition.
Result: 0.7

Problem: Supply growth inhibition value. Item: CC1=C(c2cc(C(=O)Nc3nccs3)nc(NC#N)n2)Sc2ccccc2N1
Result: 4.5

Problem: Answer with the recorded growth inhibition of CC(=O)OCC1OC(n2nc(/C=C/c3ccco3)c(=O)n(-c3ccccc3)c2=S)C(OC(C)=O)C(OC(C)=O)C1OC(C)=O (stereo not given) only.
Result: 16.4

Problem: For the compound COc1cc(OC)c(C(C)=O)c(C(C)=O)c1 , give its reported growth inhibition.
Result: -10.6

Problem: Provide growth inhibition value for the following compound: O=c1[nH][nH]c(=O)c2c1nc(SCc1ccc(Br)cc1)n2Cc1ccccc1
Result: -2.35

Problem: State, in one line, measured growth inhibition of CCCCNc1ccc(S(=O)(=O)c2ccc(NCCCC)c([N+](=O)[O-])c2)cc1[N+](=O)[O-]
Result: 2.35

Problem: Using the record for SCCNCc1ccco1 , state its measured growth inhibition.
Result: -32.6

Problem: Please give measured growth inhibition of the following entry: c1ccc2c(c1)CCC2
Result: -18.1

Problem: Hello, please tell me recorded growth inhibition for this one: COc1cccc(C(=O)NNC(=O)c2ccc3ccccc3c2)c1
Result: 3.9

Problem: Give growth inhibition for O=c1[nH]nc(Cc2ccccc2)n1CCCl
Result: 8.35

Problem: Consider the compound Cc1cc(OC(N)=S)cc(C)c1Cl and give its recorded growth inhibition.
Result: 3.4

Problem: Tell me growth inhibition reported for O=[N+]([O-])c1cc2c(cc1O)[nH]c1cccc([N+](=O)[O-])c12
Result: -15.8
